clearance: recorded values
- protocolDetails: Pharmacokinetic study in Wistar rats, plasma levels by HPLC/MS, non-compartmental analysis
- Type: in vivo
- conditionsUsed: Wistar, rat, plasma, iv
# value in mL/min; strip the unit string

COc1ccc2[nH]c([S+]([O-])Cc3ncc(C)c(OC)c3C)nc2c1 (centres unmarked) : 3.7

// below: clearance requested for another compound
Please look up its clearance: COc1ccc(-n2nc(C(N)=O)c3c2C(=O)N(c2ccc(N4CCCCC4=O)cc2)CC3)cc1
0.3

This collection of values is drawn from paper PMC9586895.
